Tested on: Colon HCT116 (MMR mutated)
assay.protocol: MTT assay for 7-day toxicity assay
Format: cell-based
experimental.parameters: Colon HCT116 (MMR mutated); 7-day MTT; single determinations; read-out: GI50
observation.type: GI50 (µM)
One number for each entry, in µM.

Some compounds with recorded GI50:
C[C@H](c1ccccc1)n1nnc2c(C(N)=O)ncn2c1=O :: 194
CCOC(=O)Cn1nnc2c(C(N)=O)ncn2c1=O :: 66
NC(=O)c1ncn2c(=O)n(Cc3ccco3)nnc12 :: 55.6

Now, please, on to the next compound.
Param item = COc1cccc(Cn2nnc3c(C(N)=O)ncn3c2=O)c1 ; retrieve measured GI50.
280
